# Tested on: MELK
# test.settings: concentration: 1 μM, replicates: in singlicate; n = 1;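 note: KINOMEscan kinase panel screen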
Hi there, I'd appreciate the recorded %Inh for every entry that follows.
Kindly provide the numeric value in % only, without the unit symbol.

## Input Look up and report measured %Inh for this entry: Nc1ncnc2[nH]c(-c3ccccc3)nc12
## Output 0

## Input Look up and report measured %Inh for this entry: O=C(Nc1ccc2c(c1)OCO2)NC1CCN(c2ccnc(Nc3ccc(F)cc3)n2)C1 (centres unmarked)
## Output 0

## Input Look up and report measured %Inh for this entry: CS(=O)(=O)c1ccc(-c2c(-c3ncn[nH]3)sc(N3CCOCC3)c2C#N)cc1
## Output 5

## Input Look up and report measured %Inh for this entry: CCn1c(-c2ccccn2)nc2cnccc21
## Output 22

## Input Look up and report measured %Inh for this entry: COc1ccc(Nc2nccc(NCCNC(=O)Nc3ccccc3F)n2)cc1
## Output 0

----------
Hi there, I'd appreciate the recorded %Inh for every entry that follows.
# System: STK16
# test.settings: concentration: 1 μM, replicates: in singlicate; n = 1
Kindly provide the numeric value in % only, without the unit symbol.

## Input Look up and report measured %Inh for this entry: Cc1ccccc1-n1cnc2c(N)ncnc21
## Output 21

## Input Look up and report measured %Inh for this entry: Fc1cc(Cl)ccc1Nc1ccnc2cc(I)ccc12
## Output 9

## Input Look up and report measured %Inh for this entry: COc1ccccc1-c1ccc2c(NC(=O)C3CC3)n[nH]c2n1
## Output 28

## Input Look up and report measured %Inh for this entry: Cn1ccc2ncnc(Oc3ccc(NC(=O)Nc4ccccc4)cc3)c21
## Output 9

## Input Look up and report measured %Inh for this entry: COc1cccc(-c2cc(-c3c[nH]nc3-c3ccccn3)ccn2)c1
## Output 8

## Input Look up and report measured %Inh for this entry: O=C(Nc1ccc2c(c1)OCO2)NC1CCN(c2ccnc(Nc3ccc(F)cc3)n2)C1 (stereo not shown)
## Output 30

## Input Look up and report measured %Inh for this entry: Cc1ccc(NC(=O)Nc2cccc(Cl)c2)cc1-c1ccc(C(=O)Nc2ccncc2)cc1
## Output 9

## Input Look up and report measured %Inh for this entry: Cl.O=C(Nc1cccc(-c2nn3ncccc3c2-c2ccnc(Nc3cccnc3)n2)c1)c1c(F)cccc1F
## Output 3

## Input Look up and report measured %Inh for this entry: Fc1cc(Cl)ccc1Nc1ccnc2cc(-c3ccc(CN4CCCCC4)o3)ccc12
## Output 1

## Input Look up and report measured %Inh for this entry: COc1cc2ncnc(Nc3ccc4nc(-c5ccccc5)[nH]c4c3)c2cc1OC.Cl
## Output 19

## Input Look up and report measured %Inh for this entry: COc1ccc(Nc2nccc(NCCNC(=O)Nc3ccccc3F)n2)cc1
## Output 18

## Input Look up and report measured %Inh for this entry: Cn1ccc2ncnc(Oc3cccc(C(=O)Nc4ccccc4)c3)c21
## Output 0

## Input Look up and report measured %Inh for this entry: O=S(=O)(c1ccc(-c2ccnc3[nH]ccc23)cc1)N1CCCC1
## Output 67

## Input Look up and report measured %Inh for this entry: CS(=O)(=O)c1ccc(-c2nc3n(c2-c2ccncc2)CCC3)cc1
## Output 96.8

## Input Look up and report measured %Inh for this entry: Cc1nnc(-c2ccc3occ(-c4ccc(S(C)=O)cc4)c3c2)[nH]1 (stereo not shown)
## Output 11

## Input Look up and report measured %Inh for this entry: Cl.c1ccc(-c2n[nH]cc2-c2ccnc(-c3ccc(CN4CCOCC4)cc3)c2)nc1
## Output 17

## Input Look up and report measured %Inh for this entry: Clc1cc(Cl)cc(Nc2ccnc(Nc3cc(Cl)cc(Cl)c3)n2)c1
## Output 24

## Input Look up and report measured %Inh for this entry: Cc1cc(NCC(c2ccccc2)c2ccccc2)nc(NCc2ccc(C(F)(F)F)cc2)n1
## Output 18

## Input Look up and report measured %Inh for this entry: COC(=O)c1c(-c2ccccc2)c2cc(OC)ccc2c(=O)n1Cc1ccccc1
## Output 3
